meta.source: PubChem BioAssay (NCI)

Assay text: NCI Yeast Anticancer Drug Screen. Data for the cln2 rad14 strain (AID 165);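 also: 0% = growth equal to vehicle treated cultures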
Measurement setup: S. cerevisiae cln2 rad14 strain, at 50.0 µM
This is part of a sample that, as a whole, favours compounds with a hit. Of some 79,000 tested, about 15% had one in any assay. The source made the active and inactive calls. Rule as the data show it: active = growth inhibition above about 70%; inactive = the rest. Where a SMILES comes first, the peptide text is derived from it. [ ]: non-standard residue; d: D form. Hpg = N[CH](C(=O)O)c1ccc(O)cc1
Outcome (select one): True (active), False (inactive)

# Compound, Discrete label
data = [
    ("CCOC(=O)c1c(C(=O)Nc2ccccc2)c(-c2ccccc2)n(NC(N)=O)c1C", "False"),
]

// query Field: outcome | Entry: CCOC(=O)c1c(SC(=O)c2ccc(C(C)(C)C)cc2)n(-c2ccccc2)c(=S)n(-c2ccccc2)c1=O
// result False

// query Field: outcome | Entry: Nc1ccc(Nc2c3ccccc3nc3ccccc23)cc1
// result False

// query Field: outcome | Entry: CC(C)CC(N)C(=O)NC(C(=O)O)c1ccc(O)cc1 (stereo unspecified) (H-Leu-[Hpg]-OH; configuration not given here)
// result False

// query Field: outcome | Entry: CCCCc1ccc(NC(=O)c2cccnc2)cc1
// result False

// query Field: outcome | Entry: COc1cc(/C=N/N=C(\N)NO)cc(OC)c1OC
// result False

// query Field: outcome | Entry: COc1ccc(OC)c2cc3c(cc12)C(=O)c1ccccc1C3=O
// result True

###

Assay text: NCI Yeast Anticancer Drug Screen. Data for the sgs1 mgt1 strain (AID 161);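 also: 0% = growth of cultures given vehicle only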
Measurement setup: S. cerevisiae sgs1 mgt1 strain, at 50.0 µM, active compounds read high
About 79,000 compounds went through this panel and 15% of them were active in at least one assay; those are over-represented in the sample as a whole.
Measurement name: growth inhibition (%)
Only the number, expressed in %, is required.

For orientation, consider the following solved cases.
# Compound, Result units, growth inhibition
records = [
    ("Clc1ccc(C2ON=C(c3ccccc3)N2C23CC4CC(CC(C4)C2)C3)c(Cl)c1 (stereo unspecified)", "%", -12.4),
    ("Nc1cc(=S)nc(N)[nH]1", "%", 22.4),
    ("CCN(CC)CCN=C1Nc2ccccc2N(O)N1", "%", 11.6),
    ("COc1ccc(C2OCC(COC(C)=O)O2)cc1OC (stereo unspecified)", "%", 1.2),
]

We now examine a further compound.
Sample CCCCCCCCCC(=O)OCC1OC(n2cc(F)c(=O)[nH]c2=O)C(N)C(OC(=O)CCCCCCCCC)C1O (stereo unspecified) ; growth inhibition observed: 17.1

###

Assay text: NCI Yeast Anticancer Drug Screen. Data for the rad50 strain (AID 155);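 also: 0% = growth of vehicle-only cultures of the same strain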
Measurement setup: S. cerevisiae rad50 strain growth inhibition; at 50.0 µM
The panel holds about 79,000 compounds, 15% with a hit somewhere; the sample as a whole holds those more often. Activity calls are given as the source filed them. Rule as the data show it: active = growth inhibition above about 70%; inactive = the rest.
Outcome (select one): y (active), n (inactive)

Here's what some known entries look like.
# Molecule, Discrete label
data = [
    ("Cc1ncc([N+](=O)[O-])n1CCNC(=O)CCC(=O)NCCCn1ccnc1[N+](=O)[O-]", "n"),
    ("O=C(OC(C[n+]1ccccc1)c1ccccc1)c1ccccc1 (stereo unspecified)", "n"),
    ("C/C=C(/C)C(=O)O[C@H]1C[C@@H]2[C@@H](O)c3occ(C)c3C[C@]2(C)[C@@H](C)C1", "y"),
    ("NCCCC(N)C(=O)O (stereo unspecified)", "n"),
]

// query Field: outcome | Entry: CCCC(CC/C(C)=N/NC(N)=O)[N+](=O)[O-] (stereo unspecified)
// result n

// query Field: outcome | Entry: COc1ccc(CCN2CCc3c(C)c(C#N)c4nc5ccccc5n4c32)cc1OC
// result n
